Test system: MDA-MB-231 breast
Experiment: NCI-60 one-dose screen, 48 h (100 = growth as untreated, 0 = no growth, -100 = all killed)
Settings: 10 µM unless noted
Compounds without any hit were thinned out: in the full panel of roughly 83,000, 20% have a hit.
// thresholds for growth classes: category 1 (below 40%), category 2 (40% to below 80%), category 3 (80% or more)

Record excerpt, results attached:
1) CC(=O)OC[C@]1(C)C=C2C(=O)[C@](C)(O)C3(CC3)C(C)=C2[C@H]1OC(=O)N(C)CCN(C)C(=O)OC(C)(C)C | category 1
2) COc1cc2ncnc(Nc3ccc(F)c(Cl)c3)c2cc1OCC(=O)N1CCN(C)CC1 | category 3
3) Nc1nnnc2nc[nH]c12 | category 1

Q. Returns: class label. Input: COc1cc(/C=C\c2cc(OC)c(OC)c(OC)c2)cc(N/C=C\C(=O)c2cc(OC)c(OC)c(OC)c2)c1OC
A. category 2

Q. Item: O=C(O)c1ccc([S-])cc1.[Au+].c1ccc(CN2[CH-]N(Cc3ccccc3)C(c3ccccc3)=C2c2ccccc2)cc1
A. category 1

Q. Can you check CC1(C)N=C(N)N=C(N)N1c1ccc(CCCCc2ccc(Cl)c(S(=O)(=O)F)c2)c(Cl)c1 next?
A. category 2

Q. And for COc1ccc(Nc2ccc([N+](=O)[O-])cc2[N+](=O)[O-])cc1CN(CCCl)CCCl ?
A. category 2

Q. And the next one, CNC(=O)Oc1ccc2c(c1)OCO2 ?
A. category 3

Q. Similarly, O=C([O][Hg][c]1ccccc1)c1ccccc1 ?
A. category 1

Q. Also CC12CC(=O)C3(SC#N)C(CCC4=CC(=O)CCC43C)C1CCC2=O (centres undefined) ?
A. category 3

Q. Likewise for COc1ccc(/C=C\c2cc(OC)c(OC)c(OC)c2)cc1OCC(=O)Nc1nc2ccc(F)cc2s1 ?
A. category 2
